assay: Study #1 Phase 1: plasma and urine pharmacokinetics of Compound 1 and Compound 1A after IV infusion of Compound 1 (SAD, MAD, loading regimen); details: both, human, in vivo, 10 mg
PARAMETER: Vd (L/kg)

compound="Nc1ncccc1-c1cc(Cc2ccc(COc3ccccn3)cc2)no1 [Compound 1A]" value=1.53

====

experiment: Study #2 Phase 1: pharmacokinetics after single IV and single/multiple oral doses of Compound 1, absolute oral bioavailability; conditions: human, plasma, oral, 500 mg, Cmax, Day 1, Cohort 2, 500 mg Tablets QD × 14 Days, fed, geometric mean
PARAMETER: Cmax (ng/mL)

compound="Nc1ncccc1-c1cc(Cc2ccc(COc3ccccn3)cc2)no1 [Compound 1A]" parameter=Cmax value=6180

====

assay: Study #1 Phase 1: plasma and urine pharmacokinetics of Compound 1 and Compound 1A after IV infusion of Compound 1 (SAD, MAD, loading regimen); conditions: both, human, plasma, 1000 mg, AUC(0-t), Cohort 11: Compound 1 1,000 mg/2 hr IV, single dose, geometric mean
PARAMETER: AUC(0-t)

molecule="Nc1ncccc1-c1cc(Cc2ccc(COc3ccccn3)cc2)no1 [Compound 1A]" value="476 µg·h/mL"

====

assay: Study #2 Phase 1: effect of food (fed vs fasted) on pharmacokinetics of Compound 1A after 400 mg oral Compound 1; conditions: human, plasma, po, 400 mg, Cmax, Cohort 1B, 400 mg oral Compound 1, Fed, geometric mean
PARAMETER: Cmax

compound_structure_string=Nc1ncccc1-c1cc(Cc2ccc(COc3ccccn3)cc2)no1 value="4520 ng/mL"

====

assay: Study #1 Phase 1: plasma and urine pharmacokinetics of Compound 1 and Compound 1A after IV infusion of Compound 1 (SAD, MAD, loading regimen); details: both, human, plasma, 1000 mg, AUC(0-24), Cohort 11: Compound 1 1,000 mg/3 hr IV, single dose, geometric mean
PARAMETER: AUC(0-t) (µg·h/mL)

molecule="Nc1ncccc1-c1cc(Cc2ccc(COc3ccccn3)cc2)no1 [Compound 1A]" value=117

====

assay: Study #1 Phase 1: plasma and urine pharmacokinetics of Compound 1 and Compound 1A after IV infusion of Compound 1 (SAD, MAD, loading regimen); conditions: both, human, plasma, 600 mg, Cmax, Cohort 10: Compound 1 600 mg/3 hr IV QD × 14 days, Day 7, geometric mean
PARAMETER: Cmax

compound_structure_string=Nc1ncccc1-c1cc(Cc2ccc(COc3ccccn3)cc2)no1 parameter=Cmax value="14500 ng/mL"

====

experiment: Study #2 Phase 1: pharmacokinetics after single IV and single/multiple oral doses of Compound 1, absolute oral bioavailability; settings: human, plasma, oral, 500 mg, Tmax, Day 7, Cohort 2, 500 mg Tablets QD × 14 Days, fed, median
PARAMETER: Tmax (h)

compound_structure_string=Nc1ncccc1-c1cc(Cc2ccc(COc3ccccn3)cc2)no1 scale_unit=h value=3.76

====

assay: Study #2 Phase 1: pharmacokinetics after single IV and single/multiple oral doses of Compound 1, absolute oral bioavailability; conditions: human, plasma, oral, 1000 mg, AUC(0-24), Day 1, Cohort 3, 1000 mg Tablets QD × 14 Days, fed, geometric mean
PARAMETER: AUC(0-t) (µg·h/mL)

compound_structure_string=Nc1ncccc1-c1cc(Cc2ccc(COc3ccccn3)cc2)no1 parameter=AUC(0-t) scale_unit=µg·h/mL value=119

====

assay: Study #1 Phase 1: plasma and urine pharmacokinetics of Compound 1 and Compound 1A after IV infusion of Compound 1 (SAD, MAD, loading regimen); settings: both, human, plasma, 100 mg, Tmax, Cohort 3: Compound 1 100 mg/3 hr IV, single dose, median
PARAMETER: Tmax

compound_structure_string=Nc1ncccc1-c1cc(Cc2ccc(COc3ccccn3)cc2)no1 parameter=Tmax value="3 h"

====

assay: Compound 1 pH solubility at room temperature; format: physicochemical; settings: 50 mM phosphate buffer, pH 7.5, aqueous buffer, Study B, pH 7.5 (50 mM phosphate buffer)
PARAMETER: solubility (mg/mL)

compound_structure_string=Nc1c(-c2cc(Cc3ccc(COc4ccccn4)cc3)no2)ccc[n+]1COP(=O)([O-])O value=141

====

experiment: Study #2 Phase 1: pharmacokinetics after single IV and single/multiple oral doses of Compound 1, absolute oral bioavailability; conditions: human, plasma, po, 300 mg, Cmax, 300 mg Oral Compound 1, fasted, geometric mean
PARAMETER: Cmax

compound="Nc1ncccc1-c1cc(Cc2ccc(COc3ccccn3)cc2)no1 [Compound 1A]" value="3.75 µg/mL"

====

assay: Study #2 Phase 1: pharmacokinetics after single IV and single/multiple oral doses of Compound 1, absolute oral bioavailability; conditions: human, plasma, oral, 500 mg, Tmax, Day 1, Cohort 2, 500 mg Tablets QD × 14 Days, fed, median
PARAMETER: Tmax (h)

compound_structure_string=Nc1ncccc1-c1cc(Cc2ccc(COc3ccccn3)cc2)no1 value=4

====

assay: Study #2 Phase 1: pharmacokinetics after single IV and single/multiple oral doses of Compound 1, absolute oral bioavailability; details: human, plasma, oral, 1000 mg, T½, Day 14, Cohort 3, 1000 mg Tablets QD × 14 Days, fed, geometric mean
PARAMETER: half-life (h)

compound_structure_string=Nc1ncccc1-c1cc(Cc2ccc(COc3ccccn3)cc2)no1 value=52.6

====

assay: Study #2 Phase 1: effect of food (fed vs fasted) on pharmacokinetics of Compound 1A after 400 mg oral Compound 1; conditions: human, plasma, po, 400 mg, Tmax, Cohort 1B, 400 mg oral Compound 1, Fasted, median;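 also: cohort 1b subjects took one oral dose in both fed and fasted states, across two separate periods (E, F) within the single ascending dose phase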
PARAMETER: Tmax (h)

compound_structure_string=Nc1ncccc1-c1cc(Cc2ccc(COc3ccccn3)cc2)no1 parameter=Tmax value=2.5

====

assay: clinical; conditions: human, plasma, po, 400 mg
PARAMETER: CL/F (mL/min/kg)

compound_structure_string=Nc1ncccc1-c1cc(Cc2ccc(COc3ccccn3)cc2)no1 value=0.418

====

experiment: Study #2 Phase 1: pharmacokinetics after single IV and single/multiple oral doses of Compound 1, absolute oral bioavailability; conditions: human, plasma, po, 400 mg
PARAMETER: bioavailability (%)

compound_structure_string=Nc1ncccc1-c1cc(Cc2ccc(COc3ccccn3)cc2)no1 parameter=bioavailability scale_unit=% value=101

====

test: Study #1 Phase 1: plasma and urine pharmacokinetics of Compound 1 and Compound 1A after IV infusion of Compound 1 (SAD, MAD, loading regimen); conditions: both, human, plasma, 275 mg, AUC(inf), Cohort 5: Compound 1 275 mg/3 hr IV, single dose, geometric mean [geometric %CV]
PARAMETER: AUC(0-inf) (µg·h/mL)

compound_structure_string=Nc1ncccc1-c1cc(Cc2ccc(COc3ccccn3)cc2)no1 parameter=AUC(0-inf) value=120

====

assay: Study #2 Phase 1: pharmacokinetics after single IV and single/multiple oral doses of Compound 1, absolute oral bioavailability; conditions: human, plasma, po, 300 mg, CL/F, 300 mg Oral Compound 1, fasted, geometric mean
PARAMETER: CL/F (mL/min/kg)

compound="Nc1ncccc1-c1cc(Cc2ccc(COc3ccccn3)cc2)no1 [Compound 1A]" value=0.405

====

assay: Study #1 Phase 1: plasma and urine pharmacokinetics of Compound 1 and Compound 1A after IV infusion of Compound 1 (SAD, MAD, loading regimen); conditions: both, human, plasma, 50 mg, AUC(0-24), Cohort 7: Compound 1 50 mg/3 hr IV QD × 14 days, Day 14, geometric mean
PARAMETER: AUC(0-t) (ng·h/mL)

compound="Nc1ncccc1-c1cc(Cc2ccc(COc3ccccn3)cc2)no1 [Compound 1A]" parameter=AUC(0-t) scale_unit=ng·h/mL value=20300

====

test: Study #2 Phase 1: pharmacokinetics after single IV and single/multiple oral doses of Compound 1, absolute oral bioavailability; conditions: human, plasma, po, 500 mg, CL, Day 14, Cohort 4, 500 mg Oral Solution QD × 14 Days, fed, geometric mean
PARAMETER: CL/F (mL/min/kg)

compound="Nc1ncccc1-c1cc(Cc2ccc(COc3ccccn3)cc2)no1 [Compound 1A]" parameter=CL/F value=0.555

====

assay: Study #2 Phase 1: pharmacokinetics after single IV and single/multiple oral doses of Compound 1, absolute oral bioavailability; settings: human, plasma, oral, 500 mg, CL, Day 14, Cohort 2, 500 mg Tablets QD × 14 Days, fed, geometric mean
PARAMETER: CL/F (mL/min/kg)

compound_structure_string=Nc1ncccc1-c1cc(Cc2ccc(COc3ccccn3)cc2)no1 parameter=CL/F scale_unit=mL/min/kg value=0.462

====

assay: Study #1 Phase 1: plasma and urine pharmacokinetics of Compound 1 and Compound 1A after IV infusion of Compound 1 (SAD, MAD, loading regimen); details: both, human, plasma, 1000 mg, Tmax, Cohort 11: Compound 1 1,000 mg/3 hr IV, single dose, median
PARAMETER: Tmax (h)

molecule="Nc1ncccc1-c1cc(Cc2ccc(COc3ccccn3)cc2)no1 [Compound 1A]" value=3.02

====

experiment: Study #2 Phase 1: pharmacokinetics after single IV and single/multiple oral doses of Compound 1, absolute oral bioavailability; conditions: human, plasma, po, median tmax, range across doses and study days, oral Compound 1 500 mg and 1000 mg QD × 14 days, fed;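 also: phase 1 study design: one IV dose, then escalating single oral doses, fed versus fasted single oral dosing, and once-daily oral dosing over 14 days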
PARAMETER: Tmax

compound_structure_string=Nc1ncccc1-c1cc(Cc2ccc(COc3ccccn3)cc2)no1 value="2 to 3 h"
